assay-system: 3',5'-cyclic-AMP phosphodiesterase 4B (Homo sapiens)
Sequence (Q07343 whole entry): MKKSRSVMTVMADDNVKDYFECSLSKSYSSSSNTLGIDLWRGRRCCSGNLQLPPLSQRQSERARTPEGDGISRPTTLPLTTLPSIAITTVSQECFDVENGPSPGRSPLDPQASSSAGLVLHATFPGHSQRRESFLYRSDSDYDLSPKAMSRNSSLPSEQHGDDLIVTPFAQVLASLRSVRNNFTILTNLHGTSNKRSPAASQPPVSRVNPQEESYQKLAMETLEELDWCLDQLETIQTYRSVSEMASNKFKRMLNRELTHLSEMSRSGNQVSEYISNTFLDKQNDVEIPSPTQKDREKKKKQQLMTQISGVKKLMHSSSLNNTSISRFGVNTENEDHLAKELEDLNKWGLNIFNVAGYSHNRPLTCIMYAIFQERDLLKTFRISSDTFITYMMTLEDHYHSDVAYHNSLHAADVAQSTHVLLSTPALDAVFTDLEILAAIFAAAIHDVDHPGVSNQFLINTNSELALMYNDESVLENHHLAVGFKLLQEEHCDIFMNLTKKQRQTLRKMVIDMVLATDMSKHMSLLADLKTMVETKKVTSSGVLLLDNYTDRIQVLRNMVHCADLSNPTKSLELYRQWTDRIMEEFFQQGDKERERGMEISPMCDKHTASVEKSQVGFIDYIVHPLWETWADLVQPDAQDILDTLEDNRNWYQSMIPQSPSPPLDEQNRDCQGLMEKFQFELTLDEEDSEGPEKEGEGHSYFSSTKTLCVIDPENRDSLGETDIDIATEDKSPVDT
test-name: Inhibition of PDE4B3 expressed in CHO cells assessed as isoproterenol-induced [125I]cAMP accumulation after 15 mins by scintillation counting
experimental-readout: IC50 (µM)

A. O=C(c1cnccn1)N1CCN(CCCNc2nnc(-c3cccc([N+](=O)[O-])c3)c3c2cc2ccccn23)CC1
B. c1ccc(-c2nnc(NCCCN3CCN(c4ncccn4)CC3)c3cc4ccccn4c23)cc1
C. O=C(c1cnccn1)N1CCN(CCCNc2nnc(-c3ccccc3)c3c2cc2ccccn23)CC1
Enquiry: Which order do these items take when sorted by rising IC50? List them. Field: ranking. Enter the labels in the order requested.
Return: A, C, B
(A: 0.389 µM, C: 6.7 µM, B: 13.2 µM)
